Where these numbers come from: patent US20260167622A1

# tgt: KRAS G12D protein in AsPc-1 cells (Homo sapiens, UniProt P01116, G12D)
# Construct: endogenous in cells; host or cells: AsPc-1
# Sequence (P01116 1-188 isoform P01116-2 G12D): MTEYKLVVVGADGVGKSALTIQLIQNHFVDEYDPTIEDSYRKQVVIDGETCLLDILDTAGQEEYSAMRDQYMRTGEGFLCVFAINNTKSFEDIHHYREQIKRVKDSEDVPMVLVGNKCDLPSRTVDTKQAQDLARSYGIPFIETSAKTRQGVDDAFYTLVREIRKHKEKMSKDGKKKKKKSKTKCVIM
# assay info: KRAS degradation assay (Western Blot) in AsPc-1 cells
# Assay type: cell-based
# condition description: ASPC1, 24 h
assay endpoint: Dmax (%)
Enter your answer as a number in %; do not include the unit.

• C#Cc1c(F)ccc2cc(O)cc(-c3ncc4c(N5CCC[C@@](C)(O)C5)nc(OC[C@H](C)CN5CCN(CC6CCC7(CC6)CCN(C(=O)c6ccc(C)c(N8CCC(=O)NC8=O)c6)CC7)CC5)nc4c3F)c12 [Example 47] = 93.3

Enquiry: Look at this compound and give its reported Dmax. [2H]C([2H])([2H])Oc1ccc(C(=O)N2CCC3(CCC(CN4CCN(CC5(COc6nc(N7CCC[C@@](C)(O)C7)c7cnc(-c8cc(O)cc9ccc(F)c(C#C)c89)c(F)c7n6)CC5)CC4)CC3)CC2)cc1N1CCC(=O)NC1=O [Example 170]
Return: 100

Enquiry: Look at this compound and give its reported Dmax. [2H]C([2H])([2H])Oc1ccc(C(=O)N2CCC3(CCC(CN4CCN(C[C@@H](C)COc5nc(N6CCC[C@@](C)(O)C6)c6cnc(-c7cc(O)cc8ccc(F)c(C#C)c78)c(F)c6n5)CC4)CC3)CC2)cc1N1CCC(=O)NC1=O [Example 164]
Return: 99.6
